All figures here come from paper PMC5913336.

# system_name: T1, Bicoid DBD-GST (Bcd) (UniProt P09081 83-170)
# T1 sequence: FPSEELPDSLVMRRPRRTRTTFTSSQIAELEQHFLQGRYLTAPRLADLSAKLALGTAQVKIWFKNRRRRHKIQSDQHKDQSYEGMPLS
# protocol_details: competitive fluorescence anisotropy (HiP-FA); mean of replicates 18.854, 22.285; HiP-FA: 33 mM phosphate pH 7.0, 90 mM NaCl, 0.01% Tween 20, 0.1 mM DTT, 0.5% agarose; conventional titration and EMSA: 20 mM Tris-acetate pH 7.0, 50 nM (sic) NaCl, 0.01% Tween-20, 0.1 mM DTT
# measurement_parameters: protein: recombinant; tags: N-terminal GST; blunt, G:G mismatch at position 6
endpoint: Kd (nM)
The response must be a number in nM with no trailing unit.

*Q* Supply Kd value. Item: Bcd competitor 10 (T4C) (dsDNA) DNA 1: TCGACGGCAATCCCTA DNA 2: TAGGGATTGCGGTCGA
*A* 20.6
